Tested on: MCF7
Test: NCI tumour cell line growth inhibition, 48 h
Active and inactive are the calls of the source. No stated cut-off is given here; in the data, active = GI50 up to about 1.1 µM and inactive = higher.
Give GI50 for every item shown.

Ask | Requested field: GI50. Item: CC1(c2nc3ccccc3[nH]2)CCC(C(=O)O)C(C)(C)O1 (centres undefined)
Reply | > 100 µM (inactive)

Ask | What do you get for CN(C)/C=N/c1ccc2nonc2c1 ?
Reply | > 100 µM (inactive)

Ask | What do you get for CCCCCC(O)C1C(=O)OC(C)C(O)/C=C/C=C/C=C/C=C\C=C(\C)C(O)CC(O)CC(O)CC(O)CC(O)CC(O)CC1O (centres undefined) ?
Reply | > 50 µM (inactive)

Ask | What do you get for CC(C)NC(=O)OCc1c(COC(=O)NC(C)C)c(-c2cc[n+](COC(=O)C3CC3)cc2)n2c1CCC2 ?
Reply | > 100 µM (inactive)

Ask | What do you get for COC(=O)C(Cc1c[nH]c2ccccc12)NP(=O)(O)OCC1OC(n2cc(Br)c(=O)[nH]c2=O)CC1O (centres undefined) ?
Reply | > 100 µM (inactive)

Ask | What do you get for O=C(O)c1ccccc1CC(Cc1ccc2c(c1)CCC2)C(=O)O (centres undefined) ?
Reply | > 100 µM (inactive)

Ask | What do you get for [N-]=[N+]=Nc1ccc2c(c1)Sc1ccccc1N2CCCCN1CCN(Cc2ccc(C(=O)c3ccccc3)cc2)CC1 ?
Reply | 2.64 µM (inactive)

Ask | What do you get for CCOC(=O)[C@@H]1ON2O[C@H](OC3CCCCC3c3ccccc3)C[C@H]3OC(=O)[C@@H]1C32 (some centres undefined) ?
Reply | > 100 µM (inactive)

Ask | What do you get for COc1nc2ccc(COc3ccc(C(=O)NC(CCC(=O)O)C(=O)O)cc3)cc2nc1OC (centres undefined) ?
Reply | > 10 µM (inactive)

These data points were gathered from ChEMBL document CHEMBL1201862.
